The entries below are paired with their reported yeast fitness.
B1: tRNA (parent)
chain: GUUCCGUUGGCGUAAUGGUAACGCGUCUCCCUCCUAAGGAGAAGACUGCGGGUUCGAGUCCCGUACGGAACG

Variants of: B1
assay text: yeast fitness relative to wild type (ratio to wild type); higher = fitter; tRNA-Arg(CCU), competitive growth, 37 C, YPD
Variants at the floor of the assay were thinned out.
Write the number on its own, no unit after it.

{"biosequence": "GAUCCGUUGGCGUAAUCGUAACGCGUCUCCCUCCUAAGGAGAAGACUGCGGGUUCGAGUCCCGUACGGAUCG", "reading": 0.572}
{"biosequence": "GUUCCGUUGGCGUGAUGGAAACGCGUGACCCUCAUGAGGAGAGGACUGCGGGUUCGAGUCCCGUACGGAACG", "reading": 0.608}
{"biosequence": "GAUCCGUUGGCGUAAUGGUAACACGUCUCCCUCCUAAGGAGAAGACUGCGGGUUCGAGUCCCGUACGGAACG", "reading": 0.867}
{"biosequence": "GUUCCGUUGGCGUAAUGGUAACGCGUCUCCCUCCCAAGGAGAAGAUUGCGCGUUCGAGUCCCAUACGGAACG", "reading": 0.619}

Query string: Param item = "GUUCCGUUGGUGUAAUGGUAACGCGUCUCCCUCCUAAGGAGAAGACUGCGGGUUCGAGUCCCGUACGCUACG" ; retrieve measured yeast fitness.
Result string: 0.54

Query string: Look at this variant and give its reported yeast fitness. "GUUCCGUUGGCGUAAUGGUAAUGCGUCUCCCUCCUAAGGAGAAGACUGCGGGUUCGAGCCCCGUACGGAACG"
Result string: 0.778

Query string: I'd like to know its yeast fitness. The variant in question is "GUUCCGUUGGCGUAAUGGUAACGCGUCUCCCUCCUAAGGAGAAGACAGCGGGUUCGGGUCCCGUACGGAACG"
Result string: 0.923

Query string: Sample "GUUCGGUUGGCGUAAUGGUAACGCGUCUCCCUCCUAAGGAGAAGACUGCGGGUUCGAGUCCCGUAUAGAACG" — what was its yeast fitness?
Result string: 0.533

Query string: Value lookup for yeast fitness; key = "GUUCCAUUGGCGUAAUGGUAACGCGUCUCCCUCCUAAGGAGAAGACUGCGAGUUCGAGUCCUGUACGGAACG"
Result string: 0.643
